B1: H2-Kb / Ed46 (parent complex)
chain 1: AQSVTQPDARVTVSEGASLQLRCKYSYFGTPYLFWYVQYPRQGLQLLLKYYPGDPVVQGVNGFEAEFSKSNSSFHLRKASVHWSDWAVYFCAVGRTGGYKVVFGSGTRLLVSP
chain 2: DSGVVQSPRHIIKEKGGRSVLTCIPISGHSNVVWYQQTLGKELKFLIQHYEKVERDKGFLPSRFSVQQFDDYHSEMNMSALELEDSAMYFCASSPRHSDYTFGSGTRLLVI
chain 3: not shown
chain 4: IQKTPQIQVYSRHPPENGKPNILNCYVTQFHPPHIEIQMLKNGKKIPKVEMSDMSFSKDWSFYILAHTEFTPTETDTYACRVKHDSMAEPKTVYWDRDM
chain 5: SIINFEKL

Variants of: B1
Test: % of reporter cells activated (NFAT-GFP), raw; note: test concentration or dose not given here
Returns Satisfied if the recorded ratio to parent is greater than or equal to 0.9, and Not satisfied otherwise.

>  <Changes>
chain 5 I2T

>  <Discrete label>
Satisfied

$$$$
>  <Changes>
chain 5 K7D

>  <Discrete label>
Not satisfied

$$$$
>  <Changes>
chain 5 I2P

>  <Discrete label>
Satisfied

$$$$

stdin: Kindly determine if ratio to parent recorded for chain 5 N4Y is above or exactly 0.9.
stdout: Not satisfied

stdin: Decide: ratio to parent of chain 5 L8D >= 0.9?
stdout: Not satisfied

stdin: Hello, I need to know if chain 5 I3S has measured ratio to parent not below 0.9. Thanks!
stdout: Satisfied

stdin: Test whether the variant chain 5 E6Q records ratio to parent of 0.9 or higher.
stdout: Not satisfied

// data source = paper PMC11480844
